- test-system: UniProt P35372
- Sequence (P35372 whole entry): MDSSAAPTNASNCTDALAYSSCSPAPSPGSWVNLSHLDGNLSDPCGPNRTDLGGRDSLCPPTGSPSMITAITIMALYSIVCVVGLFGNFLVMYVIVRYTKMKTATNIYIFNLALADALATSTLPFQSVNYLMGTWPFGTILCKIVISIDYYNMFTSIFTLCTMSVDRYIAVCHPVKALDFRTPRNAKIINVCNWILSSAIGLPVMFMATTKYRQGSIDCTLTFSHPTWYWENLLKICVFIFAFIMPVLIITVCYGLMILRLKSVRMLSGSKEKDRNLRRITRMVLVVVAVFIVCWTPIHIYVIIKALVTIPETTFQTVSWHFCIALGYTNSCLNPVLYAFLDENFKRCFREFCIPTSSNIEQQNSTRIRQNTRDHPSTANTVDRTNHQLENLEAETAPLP
- method-notes: In vitro cAMP activity at MOP (Table 10)
- Type: cell-based
- measurement-context: cAMP inhibition, four-parameter regression
*1 amine or outer side, *2 acyl side, *3 side chain or, on linkers, in order; H or OH if unused. Where a SMILES comes first, the peptide text is derived from it. Bridges are numbered along the chain shown (N, C = ends). [ ]: non-standard residue; d: D form. ξ: configuration not given here. Phe(4-NO2) = N[C@@H](Cc1ccc([N+](=O)[O-])cc1)C(=O)O; Phe(4-Cl) = N[C@@H](Cc1ccc(Cl)cc1)C(=O)O; NHCH2CMe2S = CC(C)(CN[*:1])S[*:2]; X1 = CC(C)(CN[*:2])S[*:1]; ξC = NC(CS)C(=O)O; Sar = CNCC(=O)O
A collection of compounds and their measured EC50

Request: Can you look up the measured EC50 of CC(C)C[C@H](NC(=O)[C@H](Cc1ccc(Cl)cc1)NC(=O)CN(C)C(=O)[C@@H](N)Cc1ccc(O)cc1)C(=O)N[C@@H](CCCNC(=N)N)C(=O)N[C@H](CCCNC(=N)N)C(=O)N[C@H]1CSSC(C)(C)CNC(=O)C[C@@H](C(N)=O)NC1=O [CP9] (H-Y[Sar][Phe(4-Cl)]LR[dR]CD-NH2; linker 7-8 via X1) for me?
Response: > 10000 nM

Request: Can you look up the measured EC50 of CC1(C)CNC(=O)C[C@H](C(=O)N[C@@H](CCCNC(=N)N)C(=O)N[C@@H](CCCNC(=N)N)C(N)=O)NC(=O)[C@H](Cc2ccccc2)NC(=O)CNC(=O)[C@@H](NC(=O)[C@@H](N)Cc2ccc(O)cc2)CSS1 for me?
Response: > 10000 nM

Request: Can you look up the measured EC50 of CC(C)C[C@H](NC(=O)[C@H](Cc1ccc([N+](=O)[O-])cc1)NC(=O)CN(C)C(=O)[C@@H](N)Cc1ccc(O)cc1)C(=O)N[C@@H](CCCNC(=N)N)C(=O)N[C@H](CCCNC(=N)N)C(=O)N[C@@H]1CSSC(C)(C)CNC(=O)C[C@H](C(=O)N[C@@H](CCCCN)C(N)=O)NC(=O)[C@H](CCCNC(=N)N)NC1=O [CP13] (H-Y[Sar][Phe(4-NO2)]LR[dR][dC]R[dD]K-NH2; linker 7-9 via X1) for me?
Response: > 10000 nM

Request: Can you look up the measured EC50 of CC1(C)CNC(=O)C[C@H](NC(=O)CNC(=O)[C@@H](N)Cc2ccc(O)cc2)C(=O)N[C@@H](Cc2ccccc2)C(=O)NC(C(=O)N[C@@H](CCCNC(=N)N)C(=O)N[C@@H](CCCNC(=N)N)C(N)=O)CSS1 (stereo partly drawn) [CP4, c(Tyr-Gly-Asp-Phe-SSa-Arg-Arg)] (H-YGDF[ξC]RR-NH2; linker 3-5 via NHCH2CMe2S; N-terminus assumed) for me?
Response: > 10000 nM

Request: Can you look up the measured EC50 of CC(C)C[C@H](NC(=O)[C@H](Cc1ccc(Cl)cc1)NC(=O)CN(C)C(=O)[C@@H](N)Cc1ccc(O)cc1)C(=O)N[C@@H](CCCNC(=N)N)C(=O)N[C@H](CCCNC(=N)N)C(=O)NC1CSSC(C)(C)CNC(=O)C[C@@H](C(=O)N[C@@H](CCCCN)C(N)=O)NC(=O)[C@H](CCCNC(=N)N)NC1=O (stereo partly drawn) [CP10] (H-Y[Sar][Phe(4-Cl)]LR[dR][ξC]RDK-NH2; linker 7-9 via X1; N-terminus assumed) for me?
Response: 1600 nM

More entries:
Request: Can you look up the measured EC50 of CC1(C)CNC(=O)C[C@@H](C(=O)N[C@@H](CCCNC(=N)N)C(=O)N[C@@H](CCCNC(=N)N)C(N)=O)NC(=O)[C@H](Cc2ccccc2)NC(=O)CNC(=O)C(NC(=O)[C@@H](N)Cc2ccc(O)cc2)CSS1 (stereo partly drawn) for me?
Response: 4530 nM
